# Assay details: in vivo
# Condition set: Sprague-Dawley, rat, po, 20 mg/kg
Endpoint name: AUC(0-t) at 24 h (ng·h/mL)

>>> df
                                smiles_code     endpoint_name  test_value
0  CCC(CC)O[C@@H]1C=C(C(=O)O)C[C@H](NCc2ccc3sc4ccccc4c3c2)[C@H]1NC(C)=O  AUC(0-t) at 24 h        5830

----------
# Assay details: Tmax in Sprague-Dawley rat at 20 mg/kg, po measured upto 24 hrs by LC-MS/MS analysis
# Type: ADME, organism-based
# Condition set: in vivo
Endpoint name: Tmax (min)

>>> print(df.to_string())
                                smiles_code  endpoint_name  test_value
0  CCC(CC)O[C@@H]1C=C(C(=O)O)C[C@H](NCc2ccc3sc4ccccc4c3c2)[C@H]1NC(C)=O           Tmax          30

----------
# Assay details: Inhibition of Influenza A virus H5N2 Neuraminidase
Endpoint name: IC50

>>> print(df.to_string())
                                smiles_code  test_value
0  CCC(CC)O[C@@H]1C=C(C(=O)O)C[C@H](NCc2ccc(Sc3ccccc3)cc2)[C@H]1NC(C)=O    0.869 µM

----------
# Assay details: in vivo
# Condition set: Sprague-Dawley, rat, iv, 2 mg/kg
Endpoint name: AUC(0-inf) at 24 h (ng·h/mL)

>>> df
                                smiles_code       endpoint_name  test_value
0  CCC(CC)O[C@@H]1C=C(C(=O)O)C[C@H](NCc2ccc3sc4ccccc4c3c2)[C@H]1NC(C)=O  AUC(0-inf) at 24 h        4290

----------
# Assay details: Volume of distribution in Sprague-Dawley rat at 2 mg/kg, iv measured upto 24 hrs by LC-MS/MS analysis
# Assay type: ADME, organism-based
# Condition set: in vivo
Endpoint name: Vd

>>> print(df.to_string())
                                smiles_code  endpoint_name  test_value
0  CCC(CC)O[C@@H]1C=C(C(=O)O)C[C@H](NCc2ccc3sc4ccccc4c3c2)[C@H]1NC(C)=O             Vd  0.161 L/kg

----------
# Assay details: in vitro
# Condition set: human, liver microsomes
Endpoint name: half-life (min)

                                   compound  value_prefix  test_value
0  O=C(O)Cc1ccccc1Nc1c(Cl)cccc1Cl [DICLOFENAC]             =         8.2
1  C[C@]12CC[C@H]3[C@@H](CCC4=CC(=O)CC[C@@]43C)[C@@H]1CC[C@@H]2O [TESTOSTERONE]             =        18.8
2  CCC(CC)O[C@@H]1C=C(C(=O)O)C[C@H](NCc2ccc3sc4ccccc4c3c2)[C@H]1NC(C)=O             >         145

----------
Listed here are molecules together with their documented microsomal CLint.
# Assay details: in vitro
# Condition set: human, liver microsomes
Endpoint name: microsomal CLint (µL/min/mg)

In [3]: df
Out[3]:
                                   molecule  value_prefix  test_value
0  O=C(O)Cc1ccccc1Nc1c(Cl)cccc1Cl [DICLOFENAC]             =         168
1  CCC(CC)O[C@@H]1C=C(C(=O)O)C[C@H](NCc2ccc3sc4ccccc4c3c2)[C@H]1NC(C)=O             <         9.6
2  C[C@]12CC[C@H]3[C@@H](CCC4=CC(=O)CC[C@@]43C)[C@@H]1CC[C@@H]2O [TESTOSTERONE]             =        73.6

----------
# Assay target: Cytochrome P450 3A4 (Homo sapiens)
# Sequence (P08684 whole entry): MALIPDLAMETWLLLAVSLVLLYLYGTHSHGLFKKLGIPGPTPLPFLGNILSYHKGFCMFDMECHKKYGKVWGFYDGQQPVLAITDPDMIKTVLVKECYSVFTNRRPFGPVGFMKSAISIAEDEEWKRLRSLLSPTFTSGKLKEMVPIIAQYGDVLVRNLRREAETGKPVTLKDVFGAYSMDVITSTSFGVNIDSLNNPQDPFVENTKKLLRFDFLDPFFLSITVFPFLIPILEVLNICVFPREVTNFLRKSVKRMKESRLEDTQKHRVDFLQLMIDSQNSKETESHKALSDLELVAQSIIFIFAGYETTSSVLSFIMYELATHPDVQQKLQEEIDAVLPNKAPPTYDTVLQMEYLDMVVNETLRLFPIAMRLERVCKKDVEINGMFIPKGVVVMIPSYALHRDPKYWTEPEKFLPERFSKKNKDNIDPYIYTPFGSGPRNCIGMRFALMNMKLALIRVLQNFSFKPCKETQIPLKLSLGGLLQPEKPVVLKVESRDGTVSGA
pIC50: −log10 of the molar value.
Endpoint name: pIC50

In [3]: df
Out[3]:
                                smiles_code  endpoint_name  test_value
0  CCC(CC)O[C@@H]1C=C(C(=O)O)C[C@H](NCc2ccc3sc4ccccc4c3c2)[C@H]1NC(C)=O          pIC50      < 4.00

----------
# Assay target: Cytochrome P450 2C9 (Homo sapiens, UniProt P11712)
# Sequence (P11712 whole entry): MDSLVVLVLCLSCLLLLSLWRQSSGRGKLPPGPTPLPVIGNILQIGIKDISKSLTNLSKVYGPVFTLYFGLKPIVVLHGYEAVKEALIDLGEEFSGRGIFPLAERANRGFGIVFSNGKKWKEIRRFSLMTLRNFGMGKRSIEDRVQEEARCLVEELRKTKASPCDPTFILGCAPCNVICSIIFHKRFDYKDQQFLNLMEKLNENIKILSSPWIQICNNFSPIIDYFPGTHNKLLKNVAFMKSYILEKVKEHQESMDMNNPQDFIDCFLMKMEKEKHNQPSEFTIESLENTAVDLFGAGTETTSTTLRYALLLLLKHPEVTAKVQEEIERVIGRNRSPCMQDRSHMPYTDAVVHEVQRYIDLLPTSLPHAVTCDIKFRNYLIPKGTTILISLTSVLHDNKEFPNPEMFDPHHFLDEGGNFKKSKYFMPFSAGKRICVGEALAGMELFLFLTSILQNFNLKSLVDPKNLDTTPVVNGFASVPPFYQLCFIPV
pIC50: −log10 of the molar value.
Endpoint name: pIC50

In [3]: df
Out[3]:
                                smiles_code  test_value
0  CCC(CC)O[C@@H]1C=C(C(=O)O)C[C@H](NCc2ccc3sc4ccccc4c3c2)[C@H]1NC(C)=O        4.22

----------
# Assay target: Cytochrome P450 1A2 (Homo sapiens)
# Sequence (P05177 whole entry): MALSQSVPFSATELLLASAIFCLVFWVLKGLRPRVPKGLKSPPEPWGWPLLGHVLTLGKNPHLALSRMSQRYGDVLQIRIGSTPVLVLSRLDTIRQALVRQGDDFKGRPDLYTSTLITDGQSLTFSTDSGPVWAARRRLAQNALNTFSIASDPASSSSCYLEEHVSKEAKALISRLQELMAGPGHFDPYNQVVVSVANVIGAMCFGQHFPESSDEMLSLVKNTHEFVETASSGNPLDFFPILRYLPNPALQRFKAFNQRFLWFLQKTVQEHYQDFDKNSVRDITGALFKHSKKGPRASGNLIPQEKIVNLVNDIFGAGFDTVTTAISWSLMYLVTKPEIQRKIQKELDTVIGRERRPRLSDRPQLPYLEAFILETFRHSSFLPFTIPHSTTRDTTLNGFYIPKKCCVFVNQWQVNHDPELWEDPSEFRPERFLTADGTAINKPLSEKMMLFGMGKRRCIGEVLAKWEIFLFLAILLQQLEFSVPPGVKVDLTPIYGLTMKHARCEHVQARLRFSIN
Endpoint name: IC50 (µM)

>>> df
                                smiles_code  endpoint_name  test_value
0  CCC(CC)O[C@@H]1C=C(C(=O)O)C[C@H](NCc2ccc3sc4ccccc4c3c2)[C@H]1NC(C)=O           IC50        89.4

----------
# Assay details: Inhibition of Influenza A virus H5N1-1220 Neuraminidase
pIC50: −log10 of the molar value.
Endpoint name: pIC50

In [3]: df
Out[3]:
                                smiles_code  test_value
0  CCC(CC)O[C@@H]1C=C(C(=O)O)C[C@H](NCc2ccc(-c3ccccc3)cc2)[C@H]1NC(C)=O        8.72

----------
# Assay target: Cytochrome P450 2C19 (Homo sapiens, UniProt P33261)
# Sequence (P33261 whole entry): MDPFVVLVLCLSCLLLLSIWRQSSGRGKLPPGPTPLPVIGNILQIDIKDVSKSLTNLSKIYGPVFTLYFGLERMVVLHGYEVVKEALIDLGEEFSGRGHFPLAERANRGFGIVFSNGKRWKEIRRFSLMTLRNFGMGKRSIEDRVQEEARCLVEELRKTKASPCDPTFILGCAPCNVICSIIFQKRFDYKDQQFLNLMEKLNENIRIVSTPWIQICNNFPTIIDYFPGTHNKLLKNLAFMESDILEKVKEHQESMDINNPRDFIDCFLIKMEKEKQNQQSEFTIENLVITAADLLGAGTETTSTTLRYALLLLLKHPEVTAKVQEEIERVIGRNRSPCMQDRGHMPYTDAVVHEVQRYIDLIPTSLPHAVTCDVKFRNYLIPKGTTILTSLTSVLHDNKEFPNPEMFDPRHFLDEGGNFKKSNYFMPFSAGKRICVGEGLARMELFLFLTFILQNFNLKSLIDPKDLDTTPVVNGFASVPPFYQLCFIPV
pIC50: −log10 of the molar value.
Endpoint name: pIC50

                                smiles_code  endpoint_name  test_value
0  CCC(CC)O[C@@H]1C=C(C(=O)O)C[C@H](NCc2ccc3sc4ccccc4c3c2)[C@H]1NC(C)=O          pIC50      < 4.00

----------
# Assay details: Half life in Sprague-Dawley rat at 20 mg/kg, po measured upto 24 hrs by LC-MS/MS analysis
# Format: ADME, organism-based
# Condition set: in vivo
Endpoint name: half-life (h)

>>> print(df.to_string())
                                smiles_code  endpoint_name  readout_unit  test_value
0  CCC(CC)O[C@@H]1C=C(C(=O)O)C[C@H](NCc2ccc3sc4ccccc4c3c2)[C@H]1NC(C)=O      half-life             h        1.03

----------
# Assay details: Cmax in Sprague-Dawley rat at 2 mg/kg, iv measured upto 24 hrs by LC-MS/MS analysis
# Type: ADME, organism-based
# Parameters: time < 24 hrs, dose 2 mg/kg, route iv
# Condition set: in vivo
Endpoint name: Cmax (ng/mL)

>>> df
                                smiles_code  test_value
0  CCC(CC)O[C@@H]1C=C(C(=O)O)C[C@H](NCc2ccc3sc4ccccc4c3c2)[C@H]1NC(C)=O       13000
